All figures here come from patent US20210070748A1.

Molecular target: JAK3 (Homo sapiens)
Sequence (P52333 1-1124): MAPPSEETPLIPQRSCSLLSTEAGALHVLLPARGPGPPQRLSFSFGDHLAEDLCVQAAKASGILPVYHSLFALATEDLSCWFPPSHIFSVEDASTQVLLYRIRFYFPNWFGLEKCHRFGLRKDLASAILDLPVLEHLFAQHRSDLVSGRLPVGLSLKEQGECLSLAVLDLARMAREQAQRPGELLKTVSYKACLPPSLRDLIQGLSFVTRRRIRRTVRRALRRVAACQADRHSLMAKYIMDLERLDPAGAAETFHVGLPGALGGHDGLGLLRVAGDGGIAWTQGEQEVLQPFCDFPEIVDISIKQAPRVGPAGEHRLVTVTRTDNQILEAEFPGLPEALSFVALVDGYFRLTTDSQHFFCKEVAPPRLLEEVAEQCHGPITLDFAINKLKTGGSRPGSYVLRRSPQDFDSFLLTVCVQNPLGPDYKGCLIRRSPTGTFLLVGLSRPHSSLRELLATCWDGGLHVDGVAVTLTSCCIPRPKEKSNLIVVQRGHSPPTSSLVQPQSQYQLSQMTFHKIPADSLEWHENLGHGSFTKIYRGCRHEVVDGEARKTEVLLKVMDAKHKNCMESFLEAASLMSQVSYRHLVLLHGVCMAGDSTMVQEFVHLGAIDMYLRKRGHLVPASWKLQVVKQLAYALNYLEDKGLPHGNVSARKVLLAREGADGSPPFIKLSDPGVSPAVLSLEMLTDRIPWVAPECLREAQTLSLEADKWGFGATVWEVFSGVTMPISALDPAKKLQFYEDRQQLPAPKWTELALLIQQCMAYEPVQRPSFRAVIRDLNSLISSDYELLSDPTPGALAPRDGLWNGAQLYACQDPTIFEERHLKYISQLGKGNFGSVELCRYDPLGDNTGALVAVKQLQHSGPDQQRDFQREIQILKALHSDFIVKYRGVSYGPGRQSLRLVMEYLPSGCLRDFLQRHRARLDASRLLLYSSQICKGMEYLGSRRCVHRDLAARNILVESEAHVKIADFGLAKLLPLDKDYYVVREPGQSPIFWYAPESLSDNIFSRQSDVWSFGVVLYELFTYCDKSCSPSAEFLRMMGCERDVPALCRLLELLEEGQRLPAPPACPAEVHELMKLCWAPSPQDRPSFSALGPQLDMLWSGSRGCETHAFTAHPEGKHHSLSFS
Assay: Inhibition of a panel of kinases, in vitro HotSpot kinase assay: JAK3
Format: biochemical
Conditions: D-compounds panel data; 1 μM ATP; read-out: IC50 JAK3

- compound: "C[C@@H]1[C@H](NC(=O)c2ccc(C(O)(C(F)(F)F)C(F)(F)F)cc2)CCCN1c1cnc(C(N)=O)c(Nc2cnn(C)c2)n1"
  IC50: "1 to 10 µM"
- compound: "C[C@@H]1[C@H](NC(=O)c2ccc(C(C)(O)CO)cc2)CCCN1c1cnc(C(N)=O)c(Nc2cnn(C)c2)n1 (single isomer, unassigned) [Example D-265]"
  IC50: "0.1 to 1 µM"
- compound: "C[C@@H]1[C@H](NC(=O)c2ccc(C(C)(C)O)cc2)CCCN1c1nnc(C(N)=O)c(Nc2cnn(C)c2)n1"
  IC50: "0.1 to 1 µM"
- compound: "Cc1nn(C)cc1Nc1nc(N2CCC[C@@H](NC(=O)c3ccc(C4CC4)cc3)[C@H]2C)cnc1C(N)=O"
  IC50: "> 10 µM"
- compound: "C[C@@H]1[C@H](NC(=O)c2ccc(N(C)C)cc2)CCCN1c1cnc(C(N)=O)c(Nc2ccc(C3(C)CCN(C4CCCC4)CC3)cc2)n1"
  IC50: "0.1 to 1 µM"
- compound: "C[C@@H]1[C@H](NC(=O)c2ccc(OC3CC3)cc2)CCCN1c1cnc(C(N)=O)c(Nc2cnn(C)c2)n1"
  IC50: "1 to 10 µM"
